# Tested on: MDA-MB-435 melanoma
# assayProtocol: NCI-60 one-dose screen, 48 h
# experimentalParameters: 10 µM unless noted
Compounds without any hit were thinned out: in the full panel of roughly 83,000, 20% have a hit. The source made the active and inactive calls. How the source made its calls: active means growth percent below 10; inactive means the rest.
Entry note: the call must match one of 1 (yes) for active, 0 (no) for inactive

{"columns": ["compound", "assignedLabel"],
 "data": [
  ["CC(=O)Oc1ccc(O)cc1", "0 (no)"],
  ["CCCCCCCc1n(Cc2ccc3ccccc3c2)c2ccccc2[n+]1Cc1ccc2ccccc2c1", "1 (yes)"],
  ["Cc1c(Cl)cccc1NC(=O)c1sc2nc3c(cc2c1N)CN(Cc1ccccc1)CC3", "1 (yes)"],
  ["CCOC(=O)/C(=C/c1c(-c2ccccc2)[nH]c2ccccc12)C(=O)c1ccc(Cl)cc1", "1 (yes)"],
  ["C/C(=N/Nc1nc2ccccc2n1C)c1ccccn1", "0 (no)"],
  ["COc1cc2cc(c1Cl)N(C)C(=O)C[C@H](OC(=O)[C@H](C)N(C)C(=O)CCS)C[C@]1(C)O[C@H]1[C@H](C)[C@@H]1C[C@@](O)(NC(=O)O1)[C@H](OC)/C=C/C=C(\\C)C2", "1 (yes)"]
]}

In: Called result for COc1ccc2oc(=O)cc(-c3c(C#N)c(N)n4nc(N)c(C#N)c4c3C#N)c2c1
Out: 0 (no)

In: Called result for C#Cc1ccccc1NC(=O)c1sc2nc3c(cc2c1N)CCCCC3
Out: 0 (no)

In: Called result for COc1ccc(-c2cc(-c3nnc(SCC(=O)Nc4ccc(C(C)=O)cc4)o3)c3ccccc3n2)cc1
Out: 0 (no)
